Entry source: patent US20210196796A1

Biological target: T1, orthogonal hCD122 receptor (hoRb), hCD122 with H133D and Y134F (human, UniProt P14784 27-550); note: reference of the scale not given here
T1 sequence: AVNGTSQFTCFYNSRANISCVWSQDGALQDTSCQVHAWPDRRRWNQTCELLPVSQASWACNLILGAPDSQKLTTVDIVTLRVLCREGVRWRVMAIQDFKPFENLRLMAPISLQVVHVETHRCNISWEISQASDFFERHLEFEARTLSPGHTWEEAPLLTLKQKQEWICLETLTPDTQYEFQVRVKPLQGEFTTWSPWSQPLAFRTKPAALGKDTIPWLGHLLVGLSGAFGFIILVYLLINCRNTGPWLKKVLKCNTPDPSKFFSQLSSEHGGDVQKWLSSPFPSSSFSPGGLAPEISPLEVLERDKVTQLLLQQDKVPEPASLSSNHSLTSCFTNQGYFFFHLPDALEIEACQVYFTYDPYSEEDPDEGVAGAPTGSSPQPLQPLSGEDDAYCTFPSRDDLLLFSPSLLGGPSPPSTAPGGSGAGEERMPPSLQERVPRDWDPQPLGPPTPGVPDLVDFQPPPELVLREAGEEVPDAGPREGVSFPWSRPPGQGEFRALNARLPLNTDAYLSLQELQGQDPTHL
Experiment: cell-based or functional assay
quantity.measured: Relative Proliferation Fold Change NKL 1:2 (fold)

>  <binder>
ΔG27, SQVLKA (ligand) APTSSSTKKTQLQLSQLLVLLKAILNINNYKNPKLTRMLTFKFYMPKKATELKHLQCLEEELKPLEEVLNLAQSKNFHLRPRDLISNINVIVLELKGSETTFMCEYADETATIVEFLNRWITFCQSIISTLT

>  <measured.value>
3.29

$$$$
>  <binder>
R81D, SQVLKA (ligand) APTSSSTKKTQLQLSQLLVLLKAILNGINNYKNPKLTRMLTFKFYMPKKATELKHLQCLEEELKPLEEVLNLAQSKNFHLDPRDLISNINVIVLELKGSETTFMCEYADETATIVEFLNRWITFCQSIISTLT

>  <measured.value>
3.64

$$$$
>  <binder>
ΔT7, SQVLKA (ligand) APTSSSKKTQLQLSQLLVLLKAILNGINNYKNPKLTRMLTFKFYMPKKATELKHLQCLEEELKPLEEVLNLAQSKNFHLRPRDLISNINVIVLELKGSETTFMCEYADETATIVEFLNRWITFCQSIISTLT

>  <measured.value>
3.65

$$$$
>  <binder>
ΔR81, SQVLKA (ligand) APTSSSTKKTQLQLSQLLVLLKAILNGINNYKNPKLTRMLTFKFYMPKKATELKHLQCLEEELKPLEEVLNLAQSKNFHLPRDLISNINVIVLELKGSETTFMCEYADETATIVEFLNRWITFCQSIISTLT

>  <measured.value>
4.84

$$$$
>  <binder>
L85V, SQVLKA (ligand) APTSSSTKKTQLQLSQLLVLLKAILNGINNYKNPKLTRMLTFKFYMPKKATELKHLQCLEEELKPLEEVLNLAQSKNFHLRPRDVISNINVIVLELKGSETTFMCEYADETATIVEFLNRWITFCQSIISTLT

>  <measured.value>
3.94

$$$$
>  <binder>
I92F, SQVLKA (ligand) APTSSSTKKTQLQLSQLLVLLKAILNGINNYKNPKLTRMLTFKFYMPKKATELKHLQCLEEELKPLEEVLNLAQSKNFHLRPRDLISNINVFVLELKGSETTFMCEYADETATIVEFLNRWITFCQSIISTLT

>  <measured.value>
2.32

$$$$
>  <binder>
T113N, SQVLKA (ligand) APTSSSTKKTQLQLSQLLVLLKAILNGINNYKNPKLTRMLTFKFYMPKKATELKHLQCLEEELKPLEEVLNLAQSKNFHLRPRDLISNINVIVLELKGSETTFMCEYADETANIVEFLNRWITFCQSIISTLT

>  <measured.value>
3.71

$$$$
